Study Target: JAK1 (Homo sapiens (Human))
Assay Method Text: Jak Biochemical HTRF Assay (JAK1)
Condition Context: recombinant GST-tagged catalytic domain, [ATP] 31.8 μM, unit not given (compound concentrations tested given in nM)
// reported IC50 for each item listed

Molecule: N#C[C@H]1CCOC[C@@H]1n1nc(Nc2ccc(C(N3CCC3)C(F)(F)F)cc2)c2c(=O)[nH]ccc21 (single isomer, unassigned) [Example 1-56]
Study Target: JAK1 (Homo sapiens (Human))
Units Label: nM
IC50: 0.06
//
Molecule: N#C[C@H]1CCOC[C@@H]1n1nc(Nc2ccc(C(NC3CC3)C(F)(F)F)cc2)c2c(=O)[nH]ccc21 (single isomer, unassigned) [Example 1-80]
Study Target: JAK1 (Homo sapiens (Human))
Units Label: nM
IC50: 0.07
//
Molecule: N#C[C@H]1CCOC[C@@H]1n1nc(Nc2ccc(C3(C(F)(F)F)CCCCN3)cc2)c2c(=O)[nH]ccc21 (single isomer, unassigned) [Example 2-7]
Study Target: JAK1 (Homo sapiens (Human))
Units Label: nM
IC50: 0.05
//
Molecule: CC1CCN1S(=O)(=O)c1ccc(Nc2nn([C@H]3COCC[C@@H]3C#N)c3cc[nH]c(=O)c23)cc1 (single isomer, unassigned) [Example 1-78]
Study Target: JAK1 (Homo sapiens (Human))
Units Label: nM
IC50: 0.12
//
Molecule: CCN(C(C)(C)C)S(=O)(=O)c1ccc(Nc2nn([C@H]3COCC[C@@H]3C#N)c3cc[nH]c(=O)c23)cc1 [Example 1-79]
Study Target: JAK1 (Homo sapiens (Human))
Units Label: nM
IC50: 0.04
//
Molecule: CCNC(c1ccc(Nc2nn([C@H]3COCC[C@@H]3C#N)c3cc[nH]c(=O)c23)cc1)C(F)(F)F (single isomer, unassigned) [Example 1-54]
Study Target: JAK1 (Homo sapiens (Human))
Units Label: nM
IC50: 0.07

* * *

Study Target: JAK1 (Homo sapiens (Human), UniProt P23458)
Sequence (P23458 875-1153): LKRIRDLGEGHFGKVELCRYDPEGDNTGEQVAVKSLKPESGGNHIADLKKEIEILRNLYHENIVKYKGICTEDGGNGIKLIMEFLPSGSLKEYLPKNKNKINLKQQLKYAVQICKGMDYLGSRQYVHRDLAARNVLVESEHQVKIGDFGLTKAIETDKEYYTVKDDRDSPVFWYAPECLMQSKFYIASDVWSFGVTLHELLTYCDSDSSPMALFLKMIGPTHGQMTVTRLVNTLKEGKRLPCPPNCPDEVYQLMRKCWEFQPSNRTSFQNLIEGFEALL
Assay Method Text: Jak Biochemical HTRF Assay (JAK1)
Condition Context: recombinant GST-tagged catalytic domain, [ATP] 31.8 μM, unit not given (compound concentrations tested given in nM)
Observable: IC50 (nM)

Compound: CC(C)(C)OC(=O)CN1Cc2cc(Nc3nn([C@H]4COCC[C@@H]4C#N)c4cc[nH]c(=O)c34)ccc2S1(=O)=O [Example 1-64]
Reported Measurement: 0.04
--
Compound: CC1(C)CCCN1S(=O)(=O)c1ccc(Nc2nn([C@H]3COCC[C@@H]3C#N)c3cc[nH]c(=O)c23)cc1 [Example 1-72]
Reported Measurement: 0.1
--
Compound: CS(=O)(=O)c1ccc(Nc2nn([C@H]3COCC[C@@H]3C#N)c3cc[nH]c(=O)c23)cc1 [Example 1-2]
Reported Measurement: 0.05
--
Compound: CC(C)(C)CNC(c1ccc(Nc2nn([C@H]3COCC[C@@H]3C#N)c3cc[nH]c(=O)c23)cc1)C(F)(F)F (single isomer, unassigned) [Example 1-83]
Reported Measurement: 0.5
--
Compound: CC(C)(C)S(=O)(=O)c1ccc(Nc2nn([C@H]3CCOCC[C@@H]3C#N)c3cc[nH]c(=O)c23)cc1 (single isomer, unassigned) [Example 1-26]
Reported Measurement: 0.71
--
Compound: CC(C)(C)NC(c1ccc(Nc2nn([C@H]3COCC[C@@H]3C#N)c3cc[nH]c(=O)c23)cc1)C(F)(F)F (single isomer, unassigned) [Example 1-50]
Reported Measurement: 0.08
--
Compound: CC1CN(S(=O)(=O)c2ccc(Nc3nn([C@H]4COCC[C@@H]4C#N)c4cc[nH]c(=O)c34)cc2)C1 [Example 1-70]
Reported Measurement: 0.15
--
Compound: CC1(C)CC1NC(c1ccc(Nc2nn([C@H]3COCC[C@@H]3C#N)c3cc[nH]c(=O)c23)cc1)C(F)(F)F (single isomer, unassigned) [Example 1-48]
Reported Measurement: 0.65
--
Compound: CC(c1ccc(Nc2nn([C@H]3COCC[C@@H]3C#N)c3cc[nH]c(=O)c23)cc1)n1nccn1 (single isomer, unassigned) [Example 1-44]
Reported Measurement: 0.12
--
Compound: CC(C)N1Cc2ccc(Nc3nn([C@H]4COCC[C@@H]4C#N)c4cc[nH]c(=O)c34)cc2C1 [Example 1-15]
Reported Measurement: 0.12
--
Compound: CC(O)(c1ccc(Nc2nn([C@H]3COCC[C@@H]3C#N)c3cc[nH]c(=O)c23)cc1)C(F)(F)F (single isomer, unassigned) [Example 2-3]
Reported Measurement: 0.06
--
Compound: CC(C)NC1(C)C(=O)Nc2cc(Nc3nn(C4COCC[C@@H]4C#N)c4cc[nH]c(=O)c34)ccc21 (single isomer, unassigned) [Example 1-100]
Reported Measurement: 0.06

* * *

Study Target: JAK1 (Homo sapiens (Human))
Assay Method Text: Jak Biochemical HTRF Assay (JAK1)
Condition Context: recombinant GST-tagged catalytic domain, [ATP] 31.8 μM, unit not given (compound concentrations tested given in nM)
Threshold 0.2 nM. IC50 below it: 1. IC50 at it or above: -1.

Compound: N#C[C@H]1CCOC[C@@H]1n1nc(Nc2ccnc(F)c2)c2c(=O)[nH]ccc21 [Example 1-30]
Classification: -1
//
Compound: CC(C)CNC(c1ccc(Nc2nn([C@H]3COCC[C@@H]3C#N)c3cc[nH]c(=O)c23)cc1)C(F)(F)F (single isomer, unassigned) [Example 1-91]
Classification: 1
//
Compound: Cc1ccc(Nc2nn([C@H]3COCC[C@@H]3C#N)c3cc[nH]c(=O)c23)cc1C [Example 1-68]
Classification: -1
//
Compound: CC(C)NC(c1ccc(Nc2nn([C@H]3COCC[C@@H]3C#N)c3cc[nH]c(=O)c23)cc1)C(F)(F)F (single isomer, unassigned) [Example 1-53]
Classification: 1
//
Compound: N#C[C@H]1CCOC[C@@H]1n1nc(Nc2ccc(C(N3CCC3)C(F)(F)F)cc2)c2c(=O)[nH]ccc21 (single isomer, unassigned) [Example 1-57]
Classification: 1
//
Compound: CC(c1ccc(Nc2nn([C@H]3COCC[C@@H]3C#N)c3cc[nH]c(=O)c23)cc1)n1nccn1 (single isomer, unassigned) [Example 1-45]
Classification: 1

* * *

// reported IC50 for each item listed
Study Target: JAK2 (Homo sapiens (Human))
Sequence (O60674 849-1124): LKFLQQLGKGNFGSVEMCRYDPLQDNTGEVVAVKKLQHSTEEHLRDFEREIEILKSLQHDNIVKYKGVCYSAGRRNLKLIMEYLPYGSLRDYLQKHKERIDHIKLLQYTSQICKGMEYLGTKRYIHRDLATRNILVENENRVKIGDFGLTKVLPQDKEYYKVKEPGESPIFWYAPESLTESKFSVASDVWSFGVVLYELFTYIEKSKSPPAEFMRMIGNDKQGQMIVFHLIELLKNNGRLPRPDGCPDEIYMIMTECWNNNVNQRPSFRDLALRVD
Assay Method Text: Jak Biochemical HTRF Assay (JAK2)
Condition Context: JAK2 IC50, recombinant GST-tagged catalytic domain, [ATP] 8.5 μM, unit not given (compound concentrations tested given in nM)
Observable: IC50 (nM)

Compound: N#C[C@H]1CCOCC1n1nc(Nc2ccc(C(O)(c3ccccn3)C(F)(F)F)cc2)c2c(=O)[nH]ccc21 (single isomer, unassigned) [Example 1-96]
Observable: IC50
Units Label: nM
Reported Measurement: 0.15

Compound: CC1CCCN1C(c1ccc(Nc2nn([C@H]3COCC[C@@H]3C#N)c3cc[nH]c(=O)c23)cc1)C(F)(F)F (single isomer, unassigned) [Example 1-88]
Observable: IC50
Units Label: nM
Reported Measurement: 0.09

Compound: CC(c1ccc(Nc2nn([C@H]3COCC[C@@H]3C#N)c3cc[nH]c(=O)c23)cc1)n1nccn1 (single isomer, unassigned) [Example 1-44]
Observable: IC50
Units Label: nM
Reported Measurement: 0.18

Compound: CC(C)(C)S(=O)(=O)c1ccc(Nc2nn([C@@H]3COCCC[C@@H]3C#N)c3cc[nH]c(=O)c23)cc1 (single isomer, unassigned)
Observable: IC50
Units Label: nM
Reported Measurement: 3.43

Compound: N#C[C@H]1CCOC[C@@H]1n1nc(Nc2ccc(C(N)C(F)(F)F)cc2)c2c(=O)[nH]ccc21 (single isomer, unassigned) [Example 1-9]
Observable: IC50
Units Label: nM
Reported Measurement: 0.29

Compound: COC(C)(c1ccc(Nc2nn([C@H]3COCC[C@@H]3C#N)c3cc[nH]c(=O)c23)cc1)C(F)(F)F (single isomer, unassigned)
Observable: IC50
Units Label: nM
Reported Measurement: 0.09

Compound: N#C[C@H]1CCOC[C@@H]1n1nc(Nc2ccc(C(NC3CCCC3)C(F)(F)F)cc2)c2c(=O)[nH]ccc21 (single isomer, unassigned) [Example 1-85]
Observable: IC50
Units Label: nM
Reported Measurement: 0.14

Compound: N#C[C@H]1CCOC[C@@H]1n1nc(Nc2ccc(C(NC3CC3)C(F)(F)F)cc2)c2c(=O)[nH]ccc21 (single isomer, unassigned)
Observable: IC50
Units Label: nM
Reported Measurement: 0.15

Compound: CC(C)(C)S(=O)(=O)c1ccc(Nc2nn(C3COCCC[C@H]3C#N)c3cc[nH]c(=O)c23)cc1 (single isomer, unassigned)
Observable: IC50
Units Label: nM
Reported Measurement: 14.7

Compound: CCNC(c1ccc(Nc2nn([C@H]3COCC[C@@H]3C#N)c3cc[nH]c(=O)c23)cc1)C(F)(F)F (single isomer, unassigned) [Example 1-55]
Observable: IC50
Units Label: nM
Reported Measurement: 0.12

Compound: CN(C)C(c1ccc(Nc2nn([C@H]3COCC[C@@H]3C#N)c3cc[nH]c(=O)c23)cc1)C(F)(F)F (single isomer, unassigned) [Example 1-18]
Observable: IC50
Units Label: nM
Reported Measurement: 0.13

Compound: C[S+]([O-])c1cc(Nc2nn([C@H]3COCC[C@@H]3C#N)c3cc[nH]c(=O)c23)ccc1Cl (mixture of isomers)
Observable: IC50
Units Label: nM
Reported Measurement: 14.6

Data origin: patent US9957265B2
